Tested on: Zika virus NS2B-NS3 protease
Assay: Primary screen GU AMC qHTS for Zika virus inhibitors (AID 1347154); further: nearly all actives have a fitted effect of over 70% in size; further: potency means the concentration at half of the fitted maximal effect
Conditions: Zika NS2B-NS3 unlinked protease, AMC fluorogenic substrate; series mostly up to 54.1 µM
Results filed as inconclusive are left out. Activity calls are given as the source filed them. The call rests on the fitted dose curve; in most records, active means well fitted inhibition curve with a large enough effect; inconclusive means small, poorly fitted or top-dose-only effect; inactive means flat fitted curve, though single readings scatter.

{"columns": ["Compound", "Potency"],
 "data": [
  ["Cc1cccc(C)c1OCC(C)N (stereo unspecified)", "inactive"],
  ["COc1ccccc1N1CCN(CCCNc2cc(=O)n(C)c(=O)n2C)CC1", "inactive"],
  ["CC(=O)Nc1ccc([C@H](C)C(=O)Nc2ncc(C(C)C)s2)cc1", "inactive"],
  ["Cc1cccc(Nc2nc(-c3ccncc3)cs2)c1", "inactive"],
  ["COC(=O)N[C@H](C(=O)N1CCC[C@@H]1c1ncc(-c2ccc(-c3ccc(-c4cnc([C@@H]5CCCN5C(=O)[C@@H](NC(=O)OC)C(C)C)[nH]4)cc3)cc2)[nH]1)C(C)C", "30.4 µM (active)"],
  ["O=c1cc(-c2ccccc2)oc2cc(O)c(O)c(O)c12", "inactive"],
  ["CNC(=O)c1ccc2cc(C3(O)CCn4cncc43)ccc2c1 (stereo unspecified)", "inactive"],
  ["C=C1C(=O)OC2C=C(C)CCC=C(C)CCC12 (stereo unspecified)", "inactive"],
  ["Nc1ncnc2c1nc(Cl)n2[C@@H]1O[C@H](CO)[C@@H](O)[C@@H]1O", "inactive"],
  ["O=c1ccn([C@@H]2O[C@H](CO)[C@H](O)[C@H]2O)c(=O)[nH]1", "inactive"],
  ["CC=CCC(C)C(O)C1C(=O)NC(CC)C(=O)N(C)CC(=O)N(C)C(CC(C)C)C(=O)NC(C(C)C)C(=O)N(C)C(CC(C)C)C(=O)NC(C)C(=O)NC(C)C(=O)N(C)C(CC(C)C)C(=O)N(C)C(CC(C)C)C(=O)N(C)C(C(C)C)C(=O)N1C (stereo unspecified)", "inactive"],
  ["Clc1cc(Cl)cc(CNc2ncncc2-c2ccc3c(c2)OCO3)c1", "inactive"],
  ["COc1cccc2c1CCCC2CCCN1CCN(C2CCCCC2)CC1 (stereo unspecified)", "inactive"],
  ["COc1ccc(-n2c(C)c([N+](=O)[O-])c3ccc(O)cc32)cc1", "inactive"],
  ["COc1ccc(-c2oc3c(CC=C(C)C)c(OC4O[C@H](CO)[C@@H](O)[C@H](O)[C@@H]4O)cc(O)c3c(=O)c2OC2O[C@@H](C)[C@H](O)[C@@H](O)[C@@H]2O)cc1 (stereo partly specified)", "inactive"],
  ["NC(=O)[C@@H](CCC(F)(F)F)N(Cc1ccc(-c2ncon2)cc1F)S(=O)(=O)c1ccc(Cl)cc1", "inactive"],
  ["C[N+]1(C)[C@@H]2CC(OC(=O)[C@H](CO)c3ccccc3)C[C@H]1[C@H]1O[C@@H]12 (stereo partly specified)", "inactive"],
  ["NC1CCC(Nc2nc(Nc3ccc(C(=O)N4CCCCC4)cc3)c3ncn(-c4cccc(F)c4)c3n2)CC1 (stereo unspecified)", "inactive"],
  ["Cc1nc(N)sc1-c1ccnc(Nc2ccc(N3CCOCC3)cc2)n1", "inactive"],
  ["CC(=O)O[C@]1(C(C)=O)CC[C@@H]2[C@@H]3C[C@H](C)C4=CC(=O)CC[C@]4(C)[C@H]3CC[C@@]21C", "inactive"],
  ["CC(C)C(=O)Nc1ncc(-c2cc(C(F)F)nn2-c2c(Cl)cccc2Cl)s1", "inactive"],
  ["CC(C)(C(=O)NCC(F)(F)C(F)(F)F)C(=O)N[C@@H]1C(=O)Nc2ccccc2-c2ccccc21", "inactive"],
  ["COc1ccc(-c2coc3cc(O)cc(O)c3c2=O)cc1", "inactive"],
  ["CC(=NNC(=S)N1CCC1)c1ccccn1", "inactive"],
  ["CCN(CC)CCOC(=O)c1ccc(N)cc1", "inactive"],
  ["COc1cc(Nc2ncc(F)c(Nc3ccc4c(n3)NC(=O)C(C)(C)O4)n2)cc(OC)c1OC", "inactive"],
  ["CCCNC(=O)NS(=O)(=O)c1ccc(Cl)cc1", "inactive"],
  ["O=C(O)C=Cc1ccc(O)c(O)c1", "inactive"],
  ["CCCCCN(C)CCC(O)(P(=O)(O)O)P(=O)(O)O", "inactive"],
  ["COC(=O)C1=CO[C@@H](O)[C@@H]2C(CO)=CC[C@@H]12", "inactive"],
  ["CC1(C)S[C@H]2[C@H](NC(=O)[C@@H](N)c3ccc(O)cc3)C(=O)N2[C@@H]1C(=O)O", "inactive"]
]}
